Each entry below carries its reported unfolding enthalpy (calorimetric).
B1: Lysozyme C, P61626 (parent)
chain: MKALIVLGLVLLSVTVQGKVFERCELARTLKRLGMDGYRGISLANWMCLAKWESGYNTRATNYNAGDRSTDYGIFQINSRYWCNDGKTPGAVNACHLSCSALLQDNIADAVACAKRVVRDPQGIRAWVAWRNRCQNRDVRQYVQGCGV

Variants of: B1
Conditions: Homo sapiens; pH 2.7; 64.9 °C; Thermal; DSC; glycine 0.05 M; reversible: yes; structure 1LZ1; whole UniProt chain shown
quantity.measured: unfolding enthalpy (calorimetric) (kJ/mol)

1) I41A	454
2) I74A	441
3) I107A	459
4) I77G	444
5) I124A	441
6) I77A	480
